testSummary: in vivo
condition: male, Sprague-Dawley, rat, iv, 8 mg/kg
experimentalReadout: AUC(0-inf) (ng·h/mL)
Please give a number only; it is taken to be in ng·h/mL.

Q. Please give measured AUC(0-inf) of the following entry: Nc1ccn([C@@H]2O[C@H](CO)[C@@H](O)C2(F)F)c(=O)n1 [Gemcitabine, 2,2′-difluorodeoxycytidine]
A. 24500

----------
testSummary: in vivo
condition: male, Sprague-Dawley, rat, iv, Gemcitabine blood concentration, 120 minutes
experimentalReadout: concentration at 120 min (ng/mL)
State the answer as a number, implicitly in ng/mL.

Q. Consider the compound Nc1ccn([C@@H]2O[C@H](CO)[C@@H](O)C2(F)F)c(=O)n1 [Gemcitabine, 2,2′-difluorodeoxycytidine] and give its recorded concentration at 120 min.
A. 2800
